experiment: Kinetic assay of purified DAOCS with penicillin G (standard penicillin G assay, HPLC of cephalosporin G); assay type: biochemical; conditions: for penicillin G; 20 μg purified DAOCS, 1 mM α-ketoglutarate, 30° C.
Test readout: kcat (S^−1)
Record the value in S^−1, omitting the unit from your answer.

Hello, please tell me recorded kcat for this one: YS115: mutated penicillin expandase (DAOCS) with substitution M73T (protein, UniProt P18548 1-311, looked up, variant M73T) Deacetoxycephalosporin C …: MDTTVPTFSLAELQQGLHQDEFRRCLRDKGLFYLTDCGLTDTELKSAKDLVIDFFEHGSEAEKRAVTSPVPTTRRGFTGLESESTAQITNTGSYSDYSMCYSMGTADNLFPSGDFERIWTQYFDRQYTASRAVAREVLRATGTEPDGGVEAFLDCEPLLRFRYFPQVPEHRSAEEQPLRMAPHYDLSMVTLIQQTPCANGFVSLQAEVGGAFTDLPYRPDAVLVFCGAIATLVTGGQVKAPRHHVAAPRRDQIAGSSRTSSVFFLRPNADFTFSVPLARECGFDVSLDGETATFQDWIGGNYVNIRRTSKA
0.0627
